# study target: T1, Formyl peptide receptor like 1 (FPRL1) (human, UniProt P25090 1-351)
# T1 sequence (looked up): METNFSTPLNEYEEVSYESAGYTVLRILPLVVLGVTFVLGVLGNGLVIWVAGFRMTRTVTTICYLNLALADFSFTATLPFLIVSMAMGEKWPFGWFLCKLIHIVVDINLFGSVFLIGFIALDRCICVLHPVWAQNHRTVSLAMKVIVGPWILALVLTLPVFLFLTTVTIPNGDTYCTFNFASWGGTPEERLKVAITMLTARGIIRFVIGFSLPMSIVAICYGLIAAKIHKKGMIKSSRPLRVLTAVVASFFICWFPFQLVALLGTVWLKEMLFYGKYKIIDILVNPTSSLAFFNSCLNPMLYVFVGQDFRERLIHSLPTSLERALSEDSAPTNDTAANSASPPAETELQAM
# protocol description: cell-based or functional assay
Where no end group is shown, it is not given here. [ ]: non-standard residue; d: D form.
property: Ca^2+ (FPRL1) IC50 (nM)
Answer format: numeric, nM implied, no suffix.

Some entries whose results are on file:
binder: [dW]WRWWW [wWRWWW]
quantitative readout: 110

binder: WWWWMR
quantitative readout: 5700

binder: RWWW
quantitative readout: 600

binder: WWWM
quantitative readout: 5900

Prompt line: Report measured Ca^2+ (FPRL1) IC50; entry is WWRWWM
Response line: 83

Prompt line: Report measured Ca^2+ (FPRL1) IC50; entry is WWWWWR
Response line: 220

Prompt line: Report measured Ca^2+ (FPRL1) IC50; entry is RWWM
Response line: 650

Prompt line: Report measured Ca^2+ (FPRL1) IC50; entry is WWRWWW
Response line: 58

Prompt line: Report measured Ca^2+ (FPRL1) IC50; entry is WRWWWW-NH2 [Trp-Arg-Trp-Trp-Trp-Trp-CONH2 (WRWWWW, WRW^4)]
Response line: 1000

Prompt line: Report measured Ca^2+ (FPRL1) IC50; entry is WWWW
Response line: 860

Prompt line: Report measured Ca^2+ (FPRL1) IC50; entry is LWWWWW
Response line: 500

Prompt line: Report measured Ca^2+ (FPRL1) IC50; entry is [dW]WRWWM (not fully specified; printed as wWRWWM) [wWRWWM]
Response line: 8.2
